Molecular target: Mcl-1 (c-myc-tagged, without the N-terminal domain and the C-terminal trans-membrane region) (human)
Sequence (Q07820 whole entry, the tested form may be a part): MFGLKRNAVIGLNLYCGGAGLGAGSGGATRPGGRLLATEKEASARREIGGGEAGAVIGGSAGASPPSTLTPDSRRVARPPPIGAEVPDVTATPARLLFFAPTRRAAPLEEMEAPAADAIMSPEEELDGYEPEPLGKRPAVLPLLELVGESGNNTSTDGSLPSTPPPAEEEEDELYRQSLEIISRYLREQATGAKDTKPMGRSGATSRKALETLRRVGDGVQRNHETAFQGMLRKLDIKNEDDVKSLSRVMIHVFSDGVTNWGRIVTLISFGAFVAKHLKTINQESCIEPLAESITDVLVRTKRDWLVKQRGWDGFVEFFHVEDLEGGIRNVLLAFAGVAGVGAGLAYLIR
Experiment: fluorescence polarisation
READOUT_KIND: pKd
Remember the convention: pKd equals -log10 of concentration in molar.

Input: Recorded pKd of {5/6‑fluorescein amidite}-RPEIWMGQGLRRLGDEINAYYAR-NH2 (designed binder) [A12, N-terminal fluorescein] , please.
Output: 8.62

// provenance: paper PMC4168798
